Tested on: HS 578T breast
Assay Overview: NCI-60 one-dose screen, 48 h
Run Parameters: 10 µM unless noted
Compounds without any hit were thinned out: in the full panel of roughly 83,000, 20% have a hit. Activity calls are given as the source filed them. The calls were made as follows: active = growth percent below 10; inactive = the rest.
Choose one outcome from this list and give only that: 1 = active, -1 = inactive

Use the examples below as a reference point.
* COc1cc2cc(NCc3ccncc3)nc(C)c2cc1OC | -1
* Cn1cc(-c2csc(-c3c[nH]c4ccc(F)cc34)n2)c2cnccc21 | 1
* Cc1ccc2c(c1)C(C)Cc1c(ncnc1-n1cnc3cc(C)ccc31)N2C (stereo not given) | -1

Problem: Per the assay record, what outcome was assigned to CCCCC(NC(=O)CN1C(=O)/C(=C/C(C)=C/c2ccccc2)SC1=S)C(=O)O (stereo not given) ?
Solution: -1

Problem: Request: O=C(Nc1ccccc1C(=O)N/N=C(\c1ccccc1)c1ccccn1)c1ccccc1
Solution: -1

Problem: Request: Clc1nccc2c(-c3csc(-c4c[nH]c5ccc(Br)cc45)n3)c[nH]c12
Solution: -1

Problem: Request: O=C(N=Nc1c(O)[nH]c2ccccc12)Nc1ccccc1Cl
Solution: -1

Problem: Request: Cc1ccc(-c2nc3nc(-c4ccc(Cl)cc4)nc(N4CCCNCC4)c3o2)cc1
Solution: 1

Problem: Request: COc1ccc2c(c1)c(C(=O)c1nc(-c3cn(C)c4ccccc34)no1)cn2C
Solution: -1

Problem: Request: O=[N+]([O-])c1cc(C(F)(F)F)ccc1Sc1ccc(C(F)(F)F)cc1[N+](=O)[O-]
Solution: -1

meta.source: PubChem BioAssay (NCI)
